Cited source: PubChem BioAssay

TEST METHOD NOTES: binders of probe aFGF10 on microarray, primary screen, stem cell growth factor project, biochemical, small-molecule microarray, fluorescence 635/667 (AID 1071);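 note: score merges 667 nm spot intensity and signal to noise from triplicate slides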
RUN PARAMETERS: higher = more signal
READOUT NAME: composite z-score
Lab note: jot down the number only; don't add units.

Lookup: Give the value of composite z-score reported for the following: O=C1C[C@@H](O)[C@@H](O)[C@@H]2[C@@H]3C(=O)N(c4cccc(Oc5ccccc5)c4)C(=O)[C@@H]3CC[C@H]12
Found: 0.206

Lookup: Give the value of composite z-score reported for the following: COc1ccc(COC(=O)NN=C2C[C@@H](O)[C@@H](O)[C@@H]3[C@@H]4C(=O)N(Cc5ccccc5)C(=O)[C@@H]4CC[C@H]23)cc1
Found: 0.009

Lookup: Give the value of composite z-score reported for the following: O=C1OCCC=C1C(O)CCc1ccccc1 (centres undefined)
Found: 0.37

Lookup: Give the value of composite z-score reported for the following: O=C(NN=C1C[C@@H](O)[C@@H](O)[C@@H]2[C@@H]3C(=O)N(Cc4ccccc4)C(=O)[C@@H]3CC[C@@H]12)OCc1ccccc1
Found: 0.155
